# Tested on: 327498-153-R-J2-PDC complex spheroid growth, % test/control;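 further: spheroids exposed to compound for 7 days after 3 days of growth; 100% = DMSO vehicle control wells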
# protocol.summary: Anticancer human tumor 327498-153-R-J2-PDC patient-derived uterine carcinosarcoma cell line growth inhibition [Asc]
# condition.label: second compound 1 µM; first compound 0.316 µM; active compounds read low
measurement.label: viability, T/C (%)
Numbers only, in %.

Please state viability, T/C for every molecule in the list that follows.
1. CCN1CCN(Cc2ccc(Nc3ncc(F)c(-c4cc(F)c5nc(C)n(C(C)C)c5c4)n3)nc2)CC1 + Cc1c(S(C)(=O)=O)c(-c2cc(F)cc(N3CCN(c4ccc(NS(=O)(=O)c5ccc(NC(CCN6CCC(C(=O)OCCCP(=O)(O)O)CC6)CSc6ccccc6)c(S(=O)(=O)C(F)(F)F)c5)cc4)CC3)c2)c(-c2ccc(Cl)cc2)n1C(C)C
2. O=C(c1ccc(F)c(F)c1Nc1ccc(I)cc1F)N1CC(O)([C@@H]2CCCCN2)C1 + CNC(C)C(=O)NC1CN(S(=O)(=O)c2cccc(S(=O)(=O)N3CCC4CCC(C(=O)NC(c5ccccc5)c5ccccc5)N4C(=O)C(NC(=O)C(C)NC)C3)c2)CCC2CCC(C(=O)NC(c3ccccc3)c3ccccc3)N2C1=O
3. C#Cc1c(F)ccc2cc(O)cc(-c3ncc4c(N5CC6CCC(C5)N6)nc(OCC56CCCN5CC(F)C6)nc4c3F)c12 (configuration not stated) + Cc1c(S(C)(=O)=O)c(-c2cc(F)cc(N3CCN(c4ccc(NS(=O)(=O)c5ccc(NC(CCN6CCC(C(=O)OCCCP(=O)(O)O)CC6)CSc6ccccc6)c(S(=O)(=O)C(F)(F)F)c5)cc4)CC3)c2)c(-c2ccc(Cl)cc2)n1C(C)C
4. CCN1CCN(Cc2ccc(Nc3ncc(F)c(-c4cc(F)c5nc(C)n(C(C)C)c5c4)n3)nc2)CC1 + CNC(C)C(=O)NC1CN(S(=O)(=O)c2cccc(S(=O)(=O)N3CCC4CCC(C(=O)NC(c5ccccc5)c5ccccc5)N4C(=O)C(NC(=O)C(C)NC)C3)c2)CCC2CCC(C(=O)NC(c3ccccc3)c3ccccc3)N2C1=O

56.9
62.5
81
73

Parameters: items (list). Returns: viability, T/C for each item.
1. C=CC(=O)N1CCN(c2nc(=O)n(-c3c(C)ccnc3C(C)C)c3nc(-c4c(O)cccc4F)c(F)cc23)C(C)C1 (configuration not stated) + CNC(C)C(=O)NC1CN(S(=O)(=O)c2cccc(S(=O)(=O)N3CCC4CCC(C(=O)NC(c5ccccc5)c5ccccc5)N4C(=O)C(NC(=O)C(C)NC)C3)c2)CCC2CCC(C(=O)NC(c3ccccc3)c3ccccc3)N2C1=O
2. COc1c(OCCCN2CCOCC2)ccc2c3n(c(=NC(=O)c4cnc(N)nc4)nc12)CCN3 + CNC(C)C(=O)NC1CN(S(=O)(=O)c2cccc(S(=O)(=O)N3CCC4CCC(C(=O)NC(c5ccccc5)c5ccccc5)N4C(=O)C(NC(=O)C(C)NC)C3)c2)CCC2CCC(C(=O)NC(c3ccccc3)c3ccccc3)N2C1=O
3. C=C(F)C(=O)N1CCN(c2nc(OCC3CCCN3C)nc3c2CCN(c2cccc4cccc(Cl)c24)C3)CC1CC#N (configuration not stated) + Cc1c(S(C)(=O)=O)c(-c2cc(F)cc(N3CCN(c4ccc(NS(=O)(=O)c5ccc(NC(CCN6CCC(C(=O)OCCCP(=O)(O)O)CC6)CSc6ccccc6)c(S(=O)(=O)C(F)(F)F)c5)cc4)CC3)c2)c(-c2ccc(Cl)cc2)n1C(C)C

85.4
24.8
55.9

Recorded values, source PubChem BioAssay AID1963424.
